- EXPERIMENTAL TARGET: glucocorticoid receptor (Homo sapiens, UniProt P04150)
- Construct: expressed in transfected cells; host or cells: HEK293
- Sequence (P04150 whole entry): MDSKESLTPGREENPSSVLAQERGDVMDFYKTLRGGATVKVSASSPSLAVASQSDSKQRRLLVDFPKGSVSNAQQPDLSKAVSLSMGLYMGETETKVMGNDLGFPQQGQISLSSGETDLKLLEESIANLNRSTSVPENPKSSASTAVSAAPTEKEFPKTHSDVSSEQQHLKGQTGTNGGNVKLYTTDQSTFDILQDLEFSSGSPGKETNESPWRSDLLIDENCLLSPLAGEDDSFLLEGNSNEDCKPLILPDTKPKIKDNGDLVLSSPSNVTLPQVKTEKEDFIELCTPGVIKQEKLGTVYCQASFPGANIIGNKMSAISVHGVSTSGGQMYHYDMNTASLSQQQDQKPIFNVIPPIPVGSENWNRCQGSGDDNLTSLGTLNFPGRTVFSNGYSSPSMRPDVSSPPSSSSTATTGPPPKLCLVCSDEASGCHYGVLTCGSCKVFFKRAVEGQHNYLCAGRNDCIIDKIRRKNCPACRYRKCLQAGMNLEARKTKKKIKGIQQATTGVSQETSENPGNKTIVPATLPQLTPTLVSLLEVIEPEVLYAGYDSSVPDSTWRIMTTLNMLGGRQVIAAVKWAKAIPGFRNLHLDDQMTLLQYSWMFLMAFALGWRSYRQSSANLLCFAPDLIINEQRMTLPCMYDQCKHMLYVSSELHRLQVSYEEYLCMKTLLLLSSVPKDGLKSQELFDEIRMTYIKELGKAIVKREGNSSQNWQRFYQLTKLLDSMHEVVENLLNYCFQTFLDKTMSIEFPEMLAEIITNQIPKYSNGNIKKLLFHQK
- ASSAY OVERVIEW: Measurement 1 of glucocorticoid receptor reporter gene GRE activity
- Assay type: cell-based
- CONDITION DETAILS: HEK293 transfected with pGL5 and pBIND-GR, 24 hours
- Description: HEK293 cells were cultured in DMEM+10% FBS medium in a carbon dioxide incubator humidified at 37° C. at 5% carbon dioxide. […] The test plate was detected using the Dual-Glo Luciferase Assay System kit from Promega, and the fluorescence signal of Firefly Luciferase and the fluorescence signal of Renilla Luciferase were read using Enspire, respectively. […]
OBSERVED PROPERTY: EC50 (nM)
Numbers only, in nM.

COMPOUND STRUCTURE STRING | REPORTED MEASUREMENT
C[C@]12C=CC(=O)C=C1CC[C@@H]1[C@@H]2[C@@H](O)C[C@@]2(C)[C@H]1C[C@H]1O[C@@H](c3ccc(Cc4ccc(CO)cc4)cc3)O[C@]12C(=O)CO | 0.04

Could you now look at the following molecule, please?
The measured EC50 associated with C[C@]12C=CC(=O)C=C1CC[C@@H]1[C@@H]2[C@@H](O)C[C@@]2(C)[C@H]1C[C@H]1O[C@H](c3ccc(Cc4ccc(CO)cc4)cc3)O[C@]12C(=O)CO reads 1.42

Cited source for all entries: patent US20250002527A1
